System: LNCaP tumor-transplanted mouse
Experiment: Internal radioactivity distribution using LNCaP tumor-transplanted mouse
Type: in vivo
Settings: 24 h after administration
property: LNCaP Tumor (% ID/g)
Give the number; % ID/g is assumed, so skip it.

Recorded results for 3 compounds are shown here.
compound	reading_unit	LNCaP Tumor
O=C(O)CC[C@H](NC(=O)N[C@@H](CCCCNC(=O)[C@H](Cc1ccc2ccccc2c1)NC(=O)[C@H]1CC[C@H](CNC(=O)CCC(C(=O)O)N2CCN(CC(=O)O)CCN(C(CCC(=O)N[C@@H](CCCCNC(=O)CCCc3ccc(I)cc3)C(=O)O)C(=O)O)CCN(CC(=O)O)CC2)CC1)C(=O)O)C(=O)O (stereo partly shown) [[^111In]In-PSMA-NAT-DA1, metal not drawn]	% ID/g	51.9
O=C([O-])CN(Cc1cccc(C(=O)[O-])n1)C[C@H](Cc1ccc(NC(=O)[C@H](CCCCNC(=O)CCC(=O)NCCCC[C@H](NC(=O)N[C@@H](CCC(=O)O)C(=O)O)C(=O)O)NC(=O)COCCOCCOCC(=O)N[C@@H](CCCCNC(=O)CCCc2ccc(I)cc2)C(=O)O)cc1)N(CC(=O)[O-])Cc1cccc(C(=O)[O-])n1.[111In+3] [[^111In]In-Octapa-3]	% ID/g	8.04
O=C([O-])CN(Cc1cccc(C(=O)[O-])n1)C[C@H](Cc1ccc(NC(=O)[C@H](CCCCNC(=O)CCC(=O)NCCCC[C@H](NC(=O)N[C@@H](CCC(=O)O)C(=O)O)C(=O)O)NC(=O)CCCc2ccc(I)cc2)cc1)N(CC(=O)[O-])Cc1cccc(C(=O)[O-])n1.[111In+3] [[^111In]In-Octapa-2]	% ID/g	8.64

Requested read-out LNCaP Tumor, target or system LNCaP tumor-transplanted mouse, entry O=C([O-])CN1CCN(C(CCC(=O)NCCCC[C@H](NC(=O)N[C@@H](CCC(=O)O)C(=O)O)C(=O)O)C(=O)[O-])CCN(CC(=O)[O-])CCN(C(CCC(=O)Nc2ccccc2)C(=O)[O-])CC1.[111In+3] (stereo partly shown) [[^111In]In-PSMA-DB, reference compound]
2.09

----------
System: LNCaP tumor-transplanted mouse
Assay: Internal radioactivity distribution using LNCaP tumor-transplanted mouse
Type: in vivo
Conditions: 48 h after administration
Entries and their Kidney values follow.
Give the number; % ID/g is assumed, so skip it.

Would you please look over these solved cases?
molecule	system	Kidney [% ID/g]
O=C(O)CC[C@H](NC(=O)N[C@@H](CCCCNC(=O)[C@H](Cc1ccc2ccccc2c1)NC(=O)[C@H]1CC[C@H](CNC(=O)CCC(C(=O)O)N2CCN(CC(=O)O)CCN(C(CCC(=O)N[C@@H](CCCCNC(=O)CCCc3ccc(I)cc3)C(=O)O)C(=O)O)CCN(CC(=O)O)CC2)CC1)C(=O)O)C(=O)O (some centres unmarked) [[^111In]In-PSMA-NAT-DA1, metal not drawn]	LNCaP tumor-transplanted mouse	79.0
O=C([O-])CN(Cc1cccc(C(=O)[O-])n1)C[C@H](Cc1ccc(NC(=O)CCCCCNC(=O)CCC(=O)NCCCC[C@H](NC(=O)N[C@@H](CCC(=O)O)C(=O)O)C(=O)O)cc1)N(CC(=O)[O-])Cc1cccc(C(=O)[O-])n1.[111In+3] [[^111In]In-Octapa-1, reference compound]	LNCaP tumor-transplanted mouse	7.48
O=C([O-])CN(Cc1cccc(C(=O)[O-])n1)C[C@H](Cc1ccc(NC(=O)[C@H](CCCCNC(=O)CCC(=O)NCCCC[C@H](NC(=O)N[C@@H](CCC(=O)O)C(=O)O)C(=O)O)NC(=O)COCCOCCOCC(=O)N[C@@H](CCCCNC(=O)CCCc2ccc(I)cc2)C(=O)O)cc1)N(CC(=O)[O-])Cc1cccc(C(=O)[O-])n1.[111In+3] [[^111In]In-Octapa-3]	LNCaP tumor-transplanted mouse	17.3

# lookup: Kidney of O=C([O-])CN(CCN(CCc1ccc(NC(=O)CCCCCNC(=O)CCC(=O)NCCCC[C@H](NC(=O)N[C@@H](CCC(=O)O)C(=O)O)C(=O)O)cc1)CCN(CC(=O)[O-])Cc1cccc(C(=O)[O-])n1)Cc1cccc(C(=O)[O-])n1.[111In+3] [[^111In]In-Neunpa-1, reference compound]
25.2

----------
System: LNCaP tumor-transplanted mouse
Assay: Internal radioactivity distribution using LNCaP tumor-transplanted mouse
Type: in vivo
Settings: 4 h after administration
Protocol: The animal test was performed in compliance with the guidelines of Kyoto University Animal Experiment Committee. […] LNCaP or PC-3 tumor-implanted mice were administered saline solutions (185 kBq, 100 μL) of [^111In]In-PSMA-DA1 or [^111In]In-PSMA-DB from the tail vein (n=3 each). […] Thereafter, blood and each organ were recovered, and the mass and radioactivity of the organs were measured. […]
property: Pancreas (% ID/g)
Give the value in % ID/g but do not write % ID/g after it.

Pancreas for O=C([O-])CN(Cc1cccc(C(=O)[O-])n1)C[C@H](Cc1ccc(NC(=O)[C@H](CCCCNC(=O)CCC(=O)NCCCC[C@H](NC(=O)N[C@@H](CCC(=O)O)C(=O)O)C(=O)O)NC(=O)COCCOCCOCC(=O)N[C@@H](CCCCNC(=O)CCCc2ccc(I)cc2)C(=O)O)cc1)N(CC(=O)[O-])Cc1cccc(C(=O)[O-])n1.[111In+3] [[^111In]In-Octapa-3] ?
2.17

How about this compound: O=C([O-])CN1CCN(C(CCC(=O)NCCCC[C@H](NC(=O)N[C@@H](CCC(=O)O)C(=O)O)C(=O)O)C(=O)[O-])CCN(CC(=O)[O-])CCN(C(CCC(=O)N[C@@H](CCCCNC(=O)CCCc2ccc(I)cc2)C(=O)O)C(=O)[O-])CC1.[111In+3] (stereo partly drawn) [[^111In]In-PSMA-DA1]
2.48

Another compound to check: O=C([O-])CN(CCN(CCc1ccc(NC(=O)[C@H](CCCCNC(=O)CCC(=O)NCCCC[C@H](NC(=O)N[C@@H](CCC(=O)O)C(=O)O)C(=O)O)NC(=O)CCCc2ccc(I)cc2)cc1)CCN(CC(=O)[O-])Cc1cccc(C(=O)[O-])n1)Cc1cccc(C(=O)[O-])n1.[111In+3] [[^111In]In-Neunpa-2]
0.82

----------
Tested on: LNCaP tumor-transplanted mouse
Assay: Internal radioactivity distribution using LNCaP tumor-transplanted mouse
Assay type: in vivo
Details: 96 h after administration
Description: The animal test was performed in compliance with the guidelines of Kyoto University Animal Experiment Committee. […] LNCaP or PC-3 tumor-implanted mice were administered saline solutions (185 kBq, 100 μL) of [^111In]In-PSMA-DA1 or [^111In]In-PSMA-DB from the tail vein (n=3 each). […] Thereafter, blood and each organ were recovered, and the mass and radioactivity of the organs were measured. […]
property: Blood (% ID/g)
Hi! Could you send only the number? It should be in % ID/g, unit omitted.

The cases that follow already have their Blood on record.
compound	reading_unit	assay_result
O=C([O-])CN(Cc1cccc(C(=O)[O-])n1)C[C@H](Cc1ccc(NC(=O)[C@H](CCCCNC(=O)CCC(=O)NCCCC[C@H](NC(=O)N[C@@H](CCC(=O)O)C(=O)O)C(=O)O)NC(=O)COCCOCCOCC(=O)N[C@@H](CCCCNC(=O)CCCc2ccc(I)cc2)C(=O)O)cc1)N(CC(=O)[O-])Cc1cccc(C(=O)[O-])n1.[111In+3] [[^111In]In-Octapa-3]	% ID/g	0.63
O=C([O-])CN(CCN(CCc1ccc(NC(=O)CCCCCNC(=O)CCC(=O)NCCCC[C@H](NC(=O)N[C@@H](CCC(=O)O)C(=O)O)C(=O)O)cc1)CCN(CC(=O)[O-])Cc1cccc(C(=O)[O-])n1)Cc1cccc(C(=O)[O-])n1.[111In+3] [[^111In]In-Neunpa-1, reference compound]	% ID/g	0.06
O=C([O-])CN1CCN(C(CCC(=O)NCCCC[C@H](NC(=O)N[C@@H](CCC(=O)O)C(=O)O)C(=O)O)C(=O)[O-])CCN(CC(=O)[O-])CCN(C(CCC(=O)Nc2ccccc2)C(=O)[O-])CC1.[111In+3] (stereo partly drawn) [[^111In]In-PSMA-DB, reference compound]	% ID/g	0.14
O=C([O-])CN1CCN(C(CCC(=O)NCCCC[C@H](NC(=O)N[C@@H](CCC(=O)O)C(=O)O)C(=O)O)C(=O)[O-])CCN(CC(=O)[O-])CCN(C(CCC(=O)N[C@@H](CCCCNC(=O)CCCc2ccc(I)cc2)C(=O)O)C(=O)[O-])CC1.[111In+3] (stereo partly drawn) [[^111In]In-PSMA-DA1]	% ID/g	0.76
O=C(O)CC[C@H](NC(=O)N[C@@H](CCCCNC(=O)[C@H](Cc1ccc2ccccc2c1)NC(=O)[C@H]1CC[C@H](CNC(=O)CCC(C(=O)O)N2CCN(CC(=O)O)CCN(C(CCC(=O)N[C@@H](CCCCNC(=O)CCCc3ccc(I)cc3)C(=O)O)C(=O)O)CCN(CC(=O)O)CC2)CC1)C(=O)O)C(=O)O (stereo partly drawn) [[^111In]In-PSMA-NAT-DA1, metal not drawn]	% ID/g	4.07

In the following, a different compound is considered.
Can you look up the measured Blood of O=C([O-])CN(CCN(CCc1ccc(NC(=O)[C@H](CCCCNC(=O)CCC(=O)NCCCC[C@H](NC(=O)N[C@@H](CCC(=O)O)C(=O)O)C(=O)O)NC(=O)CCCc2ccc(I)cc2)cc1)CCN(CC(=O)[O-])Cc1cccc(C(=O)[O-])n1)Cc1cccc(C(=O)[O-])n1.[111In+3] [[^111In]In-Neunpa-2] for me?
0.13
